test system: Trypanosoma cruzi; test: Inhibition of Trypanosoma cruzi epimastigotes Fe-SOD at 50 ug/ml by NBT reduction assay
VALUE_TYPE: inhibition (%)

A. CCCCCCCCN1CCNCc2cc([nH]n2)CNCCN(CCCCCCCC)CCNCc2cc(n[nH]2)CNCC1
B. Cl.c1ccc(Cn2nc3cc2CNCCNCCNCc2cc(n(Cc4ccccc4)n2)CNCCNCCNC3)cc1
Between A and B , which one shows the larger inhibition value? Indicate which entry you chose by stating its label.
B

* * *

experiment: Selectivity index, ratio of IC50 for Vero cells to IC50 for Trypanosoma cruzi intracellular amastigote infected in Vero cells; format: toxicity, cell-based; settings: monkey; read-out: Ratio IC50
VALUE_TYPE: selectivity ratio
# print the numeric value only

Example cases with answers are listed next.
Cl.c1ccc(Cn2nc3cc2CNCCNCCNCc2cc(n(Cc4ccccc4)n2)CNCCNCCNC3)cc1; 14.2
Cl.Cn1nc2cc1CNCCNCCNCc1cc(n(C)n1)CNCCNCCNC2; 27.5

Provide selectivity ratio value for the following molecule: CCCCCCCCN1CCNCc2cc([nH]n2)CNCCN(CCCCCCCC)CCNCc2cc(n[nH]2)CNCC1
1.1

Provide selectivity ratio value for the following molecule: Cl.c1c2n[nH]c1CNCCN1CCNCc3cc(n[nH]3)CNCCN(CCNC2)CCNCc2cc([nH]n2)CNCC1
24

* * *

tested on: Trypanosoma cruzi; assay: Trypanosomicidal activity against Trypanosoma cruzi infected in Vero cells assessed as reduction in rate of infection after 10 days by Giemsa staining method; format: functional; set-up: scale not given: the % may be the effect or the level left
Listed below: Activity values for each entry.
Just the number in %, nothing appended.

Example cases with answers are listed next.
Cl.c1c2n[nH]c1CNCCN1CCNCc3cc(n[nH]3)CNCCN(CCNC2)CCNCc2cc([nH]n2)CNCC1; 74
O=C(Cn1ccnc1[N+](=O)[O-])NCc1ccccc1; 23

Provide Activity value for the following compound: Cl.Cn1nc2cc1CNCCNCCNCc1cc(n(C)n1)CNCCNCCNC2
80

* * *

tested on: Trypanosoma cruzi; assay: Trypanosomicidal activity against Trypanosoma cruzi infected in Vero cells assessed as reduction in trypomastigotes in culture medium after 10 days by Giemsa staining method; type: functional; parameters: scale not given: the % may be the effect or the level left
Listed below: Activity values for each entry.
Just the number in %, nothing appended.

Cl.c1ccc(Cn2nc3cc2CNCCNCCNCc2cc(n(Cc4ccccc4)n2)CNCCNCCNC3)cc1; 34
Cl.c1c2n[nH]c1CNCCN1CCNCc3cc(n[nH]3)CNCCN(CCNC2)CCNCc2cc([nH]n2)CNCC1; 70
O=C(Cn1ccnc1[N+](=O)[O-])NCc1ccccc1; 46

Provide Activity value for the following compound: Cl.Cn1nc2cc1CNCCNCCNCc1cc(n(C)n1)CNCCNCCNC2
64

* * *

test system: Mus musculus; test: Toxicity in BALB/c mouse liver infected with Trypanosoma cruzi assessed as blood vessels with thickened walls at 5 mg/kg, ip after 120 days postinfection by Histopathological analysis; format: organism-based, Blood vessel; set-up: dose 5 mg/kg, route intraperitoneal; conditions: in vivo, 2880 h
VALUE_TYPE: Activity

O=C(Cn1ccnc1[N+](=O)[O-])NCc1ccccc1 [BENZNIDAZOLE]; Non-toxic
Cl.c1c2n[nH]c1CNCCN1CCNCc3cc(n[nH]3)CNCCN(CCNC2)CCNCc2cc([nH]n2)CNCC1; Non-toxic
Cl.Cn1nc2cc1CNCCNCCNCc1cc(n(C)n1)CNCCNCCNC2; Toxic
Cl.c1ccc(Cn2nc3cc2CNCCNCCNCc2cc(n(Cc4ccccc4)n2)CNCCNCCNC3)cc1; Toxic
